Here the recorded AUC(0-t) is given for each entry.
Experiment: Single dose oral pharmacokinetic study
Format: in vivo
Settings: mouse, mice, 30 mg/kg, plasma, read-out: Mice oral PK @30 mg/kg AUC 0-t
# number only, unit µg·h/mL dropped from output

Example results:
Compound	Measure	Quantitative Readout
Cc1nnc(C(C)C)n1C1CCN(C(=O)[C@]23CC[C@@H](C4(C)CC4)[C@@H]2[C@H]2CC[C@@H]4[C@@]5(C)CC[C@H](OC(=O)CC(C)(C)C(=O)O)C(C)(C)[C@@H]5CC[C@@]4(C)[C@]2(C)CC3)CC1	AUC(0-t)	238
C=C(C)[C@@H]1CC[C@]2(C(=O)N3CCC[C@H]3c3ncc(-c4ccccc4)[nH]3)CC[C@]3(C)[C@H](CC[C@@H]4[C@@]5(C)CC[C@H](OC(=O)C[C@H]6C[C@@H](C(=O)O)C6(C)C)C(C)(C)[C@@H]5CC[C@]43C)[C@@H]12	AUC(0-t)	269
C=C(C)[C@@H]1CC[C@]2(C(=O)N3C[C@H](OCCOC)C[C@H]3c3nc(-c4cccnc4)c[nH]3)CC[C@]3(C)[C@H](CC[C@@H]4[C@@]5(C)CC[C@H](OC(=O)[C@H]6C[C@@H](C(=O)O)C6(C)C)C(C)(C)[C@@H]5CC[C@]43C)[C@@H]12	AUC(0-t)	301
C=C(C)[C@@H]1CC[C@]2(C(=O)N3CCC[C@H]3c3nnc(-c4ccccc4)o3)CC[C@]3(C)[C@H](CC[C@@H]4[C@@]5(C)CC[C@H](OC(=O)[C@H]6C[C@@H](C(=O)O)C6(C)C)C(C)(C)[C@@H]5CC[C@]43C)[C@@H]12	AUC(0-t)	403
C=C(C)[C@@H]1CC[C@]2(C(=O)N3C[C@H](OCCOC)C[C@H]3c3nc(-c4ccccc4)c[nH]3)CC[C@]3(C)[C@H](CC[C@@H]4[C@@]5(C)CC[C@H](OC(=O)[C@H]6C[C@@H](C(=O)O)C6(C)C)C(C)(C)[C@@H]5CC[C@]43C)[C@@H]12	AUC(0-t)	342
COCCOc1ccc(-c2cnc([C@@H]3CCCN3C(=O)[C@]34CC[C@@H](C5(C)CC5)[C@@H]3[C@H]3CC[C@@H]5[C@@]6(C)CC[C@H](OC(=O)[C@H]7C[C@@H](C(=O)O)C7(C)C)C(C)(C)[C@@H]6CC[C@@]5(C)[C@]3(C)CC4)[nH]2)cc1	AUC(0-t)	273

compound C=C(C)[C@@H]1CC[C@]2(C(=O)N3C4CCC3CC(n3c(C)nnc3C(C)C)C4)CC[C@]3(C)[C@H](CC[C@@H]4[C@@]5(C)CC[C@H](OC(=O)[C@H]6C[C@@H](C(=O)O)C6(C)C)C(C)(C)[C@@H]5CC[C@]43C)[C@@H]12 (stereo partly shown) , AUC(0-t) observed: 127
